Test system: Escherichia coli TOP10
assay.text: shrunken log2 fold change of peptide-encoding DNA abundance (4.5 h post-induction vs induction); higher = less antimicrobial activity (less host growth inhibition)
test.context: time post-induction: 4.5 h; library: site-saturation at positions 5, 18, 19, 20
measurement.name: shrunken log2 fold change
Write the number on its own, no unit after it.

Data request: Test system Escherichia coli TOP10; read-out shrunken log2 fold change; what value for RRIRLRPPRLPRPRPRPNWSPRP ?
Data returned: -0.136

Data request: Test system Escherichia coli TOP10; read-out shrunken log2 fold change; what value for RRIRYRPPRLPRPRPRPPFVPRP ?
Data returned: -0.304

Data request: Test system Escherichia coli TOP10; read-out shrunken log2 fold change; what value for RRIRMRPPRLPRPRPRPGFGPRP ?
Data returned: 0.904

Data request: Test system Escherichia coli TOP10; read-out shrunken log2 fold change; what value for RRIRERPPRLPRPRPRPWSKPRP ?
Data returned: -0.466

Data request: Test system Escherichia coli TOP10; read-out shrunken log2 fold change; what value for RRIRRRPPRLPRPRPRPHQIPRP ?
Data returned: 0.0553

Data request: Test system Escherichia coli TOP10; read-out shrunken log2 fold change; what value for RRIRLRPPRLPRPRPRPQFFPRP ?
Data returned: 0.551

Data request: Test system Escherichia coli TOP10; read-out shrunken log2 fold change; what value for RRIRGRPPRLPRPRPRPIKNPRP ?
Data returned: 0.488

Data request: Test system Escherichia coli TOP10; read-out shrunken log2 fold change; what value for RRIRPRPPRLPRPRPRPCSYPRP ?
Data returned: -0.858

Data request: Test system Escherichia coli TOP10; read-out shrunken log2 fold change; what value for RRIRTRPPRLPRPRPRPKGAPRP ?
Data returned: 0.351

Data request: Test system Escherichia coli TOP10; read-out shrunken log2 fold change; what value for RRIRDRPPRLPRPRPRPIHDPRP ?
Data returned: -0.58

Data request: Test system Escherichia coli TOP10; read-out shrunken log2 fold change; what value for RRIRGRPPRLPRPRPRPDNYPRP ?
Data returned: 0.0266

Data request: Test system Escherichia coli TOP10; read-out shrunken log2 fold change; what value for RRIRVRPPRLPRPRPRPEHAPRP ?
Data returned: 0.0467

Data request: Test system Escherichia coli TOP10; read-out shrunken log2 fold change; what value for RRIRARPPRLPRPRPRPMWDPRP ?
Data returned: -0.103

Data request: Test system Escherichia coli TOP10; read-out shrunken log2 fold change; what value for RRIRVRPPRLPRPRPRPWWAPRP ?
Data returned: -0.0894

Data request: Test system Escherichia coli TOP10; read-out shrunken log2 fold change; what value for RRIRDRPPRLPRPRPRPYQRPRP ?
Data returned: 0.058

---

System: Escherichia coli TOP10;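 further: peptides expressed intracellularly from a pBAD plasmid library in pooled LB shake-flask culture, induced with 0.3% L-arabinose, DNA abundance read by NGS, three biological replicates, DESeq2 with apeglm shrinkage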
assay.text: shrunken log2 fold change of peptide-encoding DNA abundance (4.5 h post-induction vs induction); higher = less antimicrobial activity (less host growth inhibition)
test.context: time post-induction: 4.5 h; library: site-saturation at positions 5, 18, 19, 20
Please enter YES where shrunken log2 fold change is greater than or equal to -0.08, and NO where it is lower.

Data request: Is the recorded value of shrunken log2 fold change equal to or greater than -0.08 for this sequence? RRIRCRPPRLPRPRPRPDLQPRP
Data returned: YES

Data request: Is the recorded value of shrunken log2 fold change equal to or greater than -0.08 for this sequence? RRIRFRPPRLPRPRPRPQDTPRP
Data returned: NO

Data request: Is the recorded value of shrunken log2 fold change equal to or greater than -0.08 for this sequence? RRIRARPPRLPRPRPRPQGPPRP
Data returned: NO

Data request: Is the recorded value of shrunken log2 fold change equal to or greater than -0.08 for this sequence? RRIRWRPPRLPRPRPRPGMIPRP
Data returned: NO

Data request: Is the recorded value of shrunken log2 fold change equal to or greater than -0.08 for this sequence? RRIRQRPPRLPRPRPRPKPIPRP
Data returned: NO

Data request: Is the recorded value of shrunken log2 fold change equal to or greater than -0.08 for this sequence? RRIRNRPPRLPRPRPRPEWAPRP
Data returned: YES

Data request: Is the recorded value of shrunken log2 fold change equal to or greater than -0.08 for this sequence? RRIRARPPRLPRPRPRPYGDPRP
Data returned: YES

Data request: Is the recorded value of shrunken log2 fold change equal to or greater than -0.08 for this sequence? RRIRCRPPRLPRPRPRPIQEPRP
Data returned: YES

Data request: Is the recorded value of shrunken log2 fold change equal to or greater than -0.08 for this sequence? RRIRRRPPRLPRPRPRPRYTPRP
Data returned: NO

Data request: Is the recorded value of shrunken log2 fold change equal to or greater than -0.08 for this sequence? RRIRARPPRLPRPRPRPTVEPRP
Data returned: YES

Data request: Is the recorded value of shrunken log2 fold change equal to or greater than -0.08 for this sequence? RRIRRRPPRLPRPRPRPLDTPRP
Data returned: YES

Data request: Is the recorded value of shrunken log2 fold change equal to or greater than -0.08 for this sequence? RRIRSRPPRLPRPRPRPNERPRP
Data returned: NO

Data request: Is the recorded value of shrunken log2 fold change equal to or greater than -0.08 for this sequence? RRIRLRPPRLPRPRPRPITEPRP
Data returned: YES

Data request: Is the recorded value of shrunken log2 fold change equal to or greater than -0.08 for this sequence? RRIRVRPPRLPRPRPRPEEYPRP
Data returned: NO

Data request: Is the recorded value of shrunken log2 fold change equal to or greater than -0.08 for this sequence? RRIRWRPPRLPRPRPRPDAQPRP
Data returned: YES

Data request: Is the recorded value of shrunken log2 fold change equal to or greater than -0.08 for this sequence? RRIRMRPPRLPRPRPRPGWSPRP
Data returned: YES

Data request: Is the recorded value of shrunken log2 fold change equal to or greater than -0.08 for this sequence? RRIRHRPPRLPRPRPRPMCAPRP
Data returned: NO

Data request: Is the recorded value of shrunken log2 fold change equal to or greater than -0.08 for this sequence? RRIRERPPRLPRPRPRPHNVPRP
Data returned: NO

Data request: Is the recorded value of shrunken log2 fold change equal to or greater than -0.08 for this sequence? RRIRVRPPRLPRPRPRPVRQPRP
Data returned: YES

Data request: Is the recorded value of shrunken log2 fold change equal to or greater than -0.08 for this sequence? RRIRTRPPRLPRPRPRPKQRPRP
Data returned: YES

Data request: Is the recorded value of shrunken log2 fold change equal to or greater than -0.08 for this sequence? RRIRGRPPRLPRPRPRPAYTPRP
Data returned: NO

Data request: Is the recorded value of shrunken log2 fold change equal to or greater than -0.08 for this sequence? RRIRHRPPRLPRPRPRPPSLPRP
Data returned: NO

Data request: Is the recorded value of shrunken log2 fold change equal to or greater than -0.08 for this sequence? RRIRKRPPRLPRPRPRPNHNPRP
Data returned: NO

Data request: Is the recorded value of shrunken log2 fold change equal to or greater than -0.08 for this sequence? RRIRQRPPRLPRPRPRPRMFPRP
Data returned: YES

Data request: Is the recorded value of shrunken log2 fold change equal to or greater than -0.08 for this sequence? RRIRFRPPRLPRPRPRPMYYPRP
Data returned: NO

Data request: Is the recorded value of shrunken log2 fold change equal to or greater than -0.08 for this sequence? RRIRDRPPRLPRPRPRPRHDPRP
Data returned: YES

Data request: Is the recorded value of shrunken log2 fold change equal to or greater than -0.08 for this sequence? RRIRHRPPRLPRPRPRPKMIPRP
Data returned: NO

Data request: Is the recorded value of shrunken log2 fold change equal to or greater than -0.08 for this sequence? RRIRHRPPRLPRPRPRPVPPPRP
Data returned: YES

Data request: Is the recorded value of shrunken log2 fold change equal to or greater than -0.08 for this sequence? RRIRRRPPRLPRPRPRPCYNPRP
Data returned: NO

Data request: Is the recorded value of shrunken log2 fold change equal to or greater than -0.08 for this sequence? RRIRHRPPRLPRPRPRPSTEPRP
Data returned: NO

Data request: Is the recorded value of shrunken log2 fold change equal to or greater than -0.08 for this sequence? RRIRNRPPRLPRPRPRPAKNPRP
Data returned: YES

Data request: Is the recorded value of shrunken log2 fold change equal to or greater than -0.08 for this sequence? RRIRVRPPRLPRPRPRPVLFPRP
Data returned: YES

Data request: Is the recorded value of shrunken log2 fold change equal to or greater than -0.08 for this sequence? RRIRHRPPRLPRPRPRPWCTPRP
Data returned: NO

Data request: Is the recorded value of shrunken log2 fold change equal to or greater than -0.08 for this sequence? RRIRERPPRLPRPRPRPHNSPRP
Data returned: NO

Data request: Is the recorded value of shrunken log2 fold change equal to or greater than -0.08 for this sequence? RRIRNRPPRLPRPRPRPDTVPRP
Data returned: YES

Data request: Is the recorded value of shrunken log2 fold change equal to or greater than -0.08 for this sequence? RRIRYRPPRLPRPRPRPICSPRP
Data returned: YES

Data request: Is the recorded value of shrunken log2 fold change equal to or greater than -0.08 for this sequence? RRIRNRPPRLPRPRPRPPRYPRP
Data returned: YES

Data request: Is the recorded value of shrunken log2 fold change equal to or greater than -0.08 for this sequence? RRIRGRPPRLPRPRPRPAYGPRP
Data returned: YES

Data request: Is the recorded value of shrunken log2 fold change equal to or greater than -0.08 for this sequence? RRIRARPPRLPRPRPRPQECPRP
Data returned: YES

Data request: Is the recorded value of shrunken log2 fold change equal to or greater than -0.08 for this sequence? RRIRSRPPRLPRPRPRPWGWPRP
Data returned: YES

Data request: Is the recorded value of shrunken log2 fold change equal to or greater than -0.08 for this sequence? RRIRCRPPRLPRPRPRPKHVPRP
Data returned: NO

Data request: Is the recorded value of shrunken log2 fold change equal to or greater than -0.08 for this sequence? RRIRNRPPRLPRPRPRPKCWPRP
Data returned: YES

Data request: Is the recorded value of shrunken log2 fold change equal to or greater than -0.08 for this sequence? RRIRRRPPRLPRPRPRPQFEPRP
Data returned: YES

Data request: Is the recorded value of shrunken log2 fold change equal to or greater than -0.08 for this sequence? RRIRARPPRLPRPRPRPLEIPRP
Data returned: YES

Data request: Is the recorded value of shrunken log2 fold change equal to or greater than -0.08 for this sequence? RRIRNRPPRLPRPRPRPNPIPRP
Data returned: YES

Data request: Is the recorded value of shrunken log2 fold change equal to or greater than -0.08 for this sequence? RRIRHRPPRLPRPRPRPWMEPRP
Data returned: YES

Data request: Is the recorded value of shrunken log2 fold change equal to or greater than -0.08 for this sequence? RRIRYRPPRLPRPRPRPKDPPRP
Data returned: NO

Data request: Is the recorded value of shrunken log2 fold change equal to or greater than -0.08 for this sequence? RRIRIRPPRLPRPRPRPWPYPRP
Data returned: NO

Data request: Is the recorded value of shrunken log2 fold change equal to or greater than -0.08 for this sequence? RRIRSRPPRLPRPRPRPNFCPRP
Data returned: YES

Data request: Is the recorded value of shrunken log2 fold change equal to or greater than -0.08 for this sequence? RRIRGRPPRLPRPRPRPENDPRP
Data returned: YES

Data request: Is the recorded value of shrunken log2 fold change equal to or greater than -0.08 for this sequence? RRIRARPPRLPRPRPRPHMQPRP
Data returned: YES

Data request: Is the recorded value of shrunken log2 fold change equal to or greater than -0.08 for this sequence? RRIRWRPPRLPRPRPRPDDAPRP
Data returned: YES

Data request: Is the recorded value of shrunken log2 fold change equal to or greater than -0.08 for this sequence? RRIRTRPPRLPRPRPRPDWYPRP
Data returned: NO

Data request: Is the recorded value of shrunken log2 fold change equal to or greater than -0.08 for this sequence? RRIRIRPPRLPRPRPRPWHHPRP
Data returned: NO

Data request: Is the recorded value of shrunken log2 fold change equal to or greater than -0.08 for this sequence? RRIRARPPRLPRPRPRPLCMPRP
Data returned: NO

Data request: Is the recorded value of shrunken log2 fold change equal to or greater than -0.08 for this sequence? RRIRMRPPRLPRPRPRPCDEPRP
Data returned: YES

Data request: Is the recorded value of shrunken log2 fold change equal to or greater than -0.08 for this sequence? RRIRYRPPRLPRPRPRPYRLPRP
Data returned: NO

Data request: Is the recorded value of shrunken log2 fold change equal to or greater than -0.08 for this sequence? RRIRVRPPRLPRPRPRPICGPRP
Data returned: YES

Data request: Is the recorded value of shrunken log2 fold change equal to or greater than -0.08 for this sequence? RRIRLRPPRLPRPRPRPNQWPRP
Data returned: NO

Data request: Is the recorded value of shrunken log2 fold change equal to or greater than -0.08 for this sequence? RRIRDRPPRLPRPRPRPNWMPRP
Data returned: YES

Data request: Is the recorded value of shrunken log2 fold change equal to or greater than -0.08 for this sequence? RRIRRRPPRLPRPRPRPDNMPRP
Data returned: NO

Data request: Is the recorded value of shrunken log2 fold change equal to or greater than -0.08 for this sequence? RRIRQRPPRLPRPRPRPYVTPRP
Data returned: NO

Data request: Is the recorded value of shrunken log2 fold change equal to or greater than -0.08 for this sequence? RRIRYRPPRLPRPRPRPMYWPRP
Data returned: NO
